Tested on: INS- cells
Assay: High-content survival / inhibitory curve, hESC-derived INS- cells
Format: cell-based, human
Settings: Homo sapiens, 96 h; H1 hESC-derived, β-cell differentiation protocol 1, 4 days treatment, n = 8
Readout Kind: pIC50
Kindly note that pIC50 refers to -log10 of the concentration in mol/L and answer with the value alone.

Q. Please look up its pIC50: O=C(NCc1cccnc1)Nc1ccc([N+](=O)[O-])cc1
A. 4.21
